Values compiled from patent US20260042764A1.

Below is a list of entries, each paired with its recorded IC50 value.
# SUBJECT_OF_TEST: Avi-KRAS G12D (1-169) GppNHp/RAF1 RBD-3xFLAG (52-151) (Homo sapiens, UniProt P01116, G12D)
# Construct: Avi-KRAS G12D (1-169)
# Sequence (P01116 1-169 isoform P01116-2 G12D): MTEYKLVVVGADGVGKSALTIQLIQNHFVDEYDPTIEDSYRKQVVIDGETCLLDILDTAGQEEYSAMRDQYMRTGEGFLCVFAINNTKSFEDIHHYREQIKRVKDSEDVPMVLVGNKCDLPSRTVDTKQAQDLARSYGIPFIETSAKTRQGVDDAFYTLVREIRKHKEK
# PROTOCOL_DESCRIPTION: Raf1-KRAS G12D-GppNHP disruption HTRF assay (Biological Example 1)
# Type: binding
# CONDITION_SUMMARY: KRAS G12D, GppNHp-loaded; Table 11
EXPERIMENTAL_READOUT: IC50

# COMPOUND, SUBJECT_OF_TEST, EXPERIMENTAL_READOUT, TEST_VALUE
records = [
    ("CO[C@@H]1C[C@@H](COc2nc(N(C)[C@H]3CCN(C(C)=O)[C@H]3C)c3cc(C(F)(F)F)c(-c4ccc(F)c5sc(N)c(C#N)c45)c(F)c3n2)N(C)C1", "Avi-KRAS G12D (1-169) GppNHp/RAF1 RBD-3xFLAG (52-151) (Homo sapiens, UniProt P01116, G12D)", "IC50", "> 10000 nM"),
    ("CC1(CO)CCN(c2nc(OCC34CCCN3CC(F)C4)nc3c(F)c(-c4ccc(F)c5sc(N)c(C#N)c45)c(C(F)(F)F)cc23)CC1 (stereo not drawn)", "Avi-KRAS G12D (1-169) GppNHp/RAF1 RBD-3xFLAG (52-151) (Homo sapiens, UniProt P01116, G12D)", "IC50", "100 to 1000 nM"),
    ("C[C@@H]1CN(c2nc(OC[C@@]34CCCN3C[C@H](F)C4)nc3c(F)c(-c4ccc(F)c5sc(N)c(C#N)c45)c(C(F)(F)F)cc23)C[C@H](C)O1", "Avi-KRAS G12D (1-169) GppNHp/RAF1 RBD-3xFLAG (52-151) (Homo sapiens, UniProt P01116, G12D)", "IC50", "100 to 1000 nM"),
    ("N#Cc1c(N)sc2c(F)ccc(-c3c(C(F)(F)F)cc4c(N5CC6CCC(C5)C6CO)nc(OC[C@@]56CCCN5C[C@H](F)C6)nc4c3F)c12 (stereo partly drawn)", "Avi-KRAS G12D (1-169) GppNHp/RAF1 RBD-3xFLAG (52-151) (Homo sapiens, UniProt P01116, G12D)", "IC50", "< 100 nM"),
    ("COC[C@H]1CCN1c1nc(OC[C@@]23CCCN2C[C@H](F)C3)nc2c(F)c(-c3ccc(F)c4sc(N)c(C#N)c34)c(C(F)(F)F)cc12", "Avi-KRAS G12D (1-169) GppNHp/RAF1 RBD-3xFLAG (52-151) (Homo sapiens, UniProt P01116, G12D)", "IC50", "100 to 1000 nM"),
    ("N#Cc1c(N)sc2c(F)ccc(-c3c(C(F)(F)F)cc4c(N5C6COCC5C6)nc(OC[C@@]56CCCN5C[C@H](F)C6)nc4c3F)c12", "Avi-KRAS G12D (1-169) GppNHp/RAF1 RBD-3xFLAG (52-151) (Homo sapiens, UniProt P01116, G12D)", "IC50", "100 to 1000 nM"),
    ("C[C@@H]1CN(c2nc(OC[C@@]34CCCN3C[C@H](F)C4)nc3c(F)c(-c4ccc(F)c5sc(N)c(C#N)c45)c(C(F)(F)F)cc23)CCO1", "Avi-KRAS G12D (1-169) GppNHp/RAF1 RBD-3xFLAG (52-151) (Homo sapiens, UniProt P01116, G12D)", "IC50", "100 to 1000 nM"),
    ("C[C@]1(O)CCN(c2nc(OC[C@@]34CCCN3C[C@H](F)C4)nc3c(F)c(-c4ccc(F)c5sc(N)c(C#N)c45)c(C(F)(F)F)cc23)C1", "Avi-KRAS G12D (1-169) GppNHp/RAF1 RBD-3xFLAG (52-151) (Homo sapiens, UniProt P01116, G12D)", "IC50", "100 to 1000 nM"),
    ("N#Cc1c(N)sc2c(F)ccc(-c3c(C(F)(F)F)cc4c(N5CCC6(CC5)CC(O)C6)nc(OC[C@@]56CCCN5C[C@H](F)C6)nc4c3F)c12", "Avi-KRAS G12D (1-169) GppNHp/RAF1 RBD-3xFLAG (52-151) (Homo sapiens, UniProt P01116, G12D)", "IC50", "100 to 1000 nM"),
    ("CN(CCO)c1nc(OC[C@@]23CCCN2C[C@H](F)C3)nc2c(F)c(-c3ccc(F)c4sc(N)nc34)c(C(F)(F)F)cc12", "Avi-KRAS G12D (1-169) GppNHp/RAF1 RBD-3xFLAG (52-151) (Homo sapiens, UniProt P01116, G12D)", "IC50", "100 to 1000 nM"),
    ("CC(=O)N1CC[C@H](N(C)c2nc(OC[C@@H]3C[C@@H](F)CN3C)nc3c(F)c(-c4ccc(F)c5sc(N)c(C#N)c45)c(C(F)(F)F)cc23)[C@@H]1C", "Avi-KRAS G12D (1-169) GppNHp/RAF1 RBD-3xFLAG (52-151) (Homo sapiens, UniProt P01116, G12D)", "IC50", "> 10000 nM"),
    ("CC(=O)N1CCCN(c2nc(OC[C@@]34CCCN3C[C@H](F)C4)nc3c(F)c(-c4ccc(F)c5sc(N)c(C#N)c45)c(C(F)(F)F)cc23)CC1", "Avi-KRAS G12D (1-169) GppNHp/RAF1 RBD-3xFLAG (52-151) (Homo sapiens, UniProt P01116, G12D)", "IC50", "100 to 1000 nM"),
]
